Data origin, for the record: paper doi:10.1101/2024.06.05.597555v1

In this section, each of the compounds is paired with its reported inhibition at 12.5 µM.
molecular target: DENV2proHeLa NS2B-NS3 protease (Dengue virus 2 Thailand/16681/84, UniProt P29990); assay: cell-based; set-up: species or system DENV2proHeLa (HeLa); conditions: HeLa, read-out: % inhibition
Sequence (P29990 1476-2093 limits assumed): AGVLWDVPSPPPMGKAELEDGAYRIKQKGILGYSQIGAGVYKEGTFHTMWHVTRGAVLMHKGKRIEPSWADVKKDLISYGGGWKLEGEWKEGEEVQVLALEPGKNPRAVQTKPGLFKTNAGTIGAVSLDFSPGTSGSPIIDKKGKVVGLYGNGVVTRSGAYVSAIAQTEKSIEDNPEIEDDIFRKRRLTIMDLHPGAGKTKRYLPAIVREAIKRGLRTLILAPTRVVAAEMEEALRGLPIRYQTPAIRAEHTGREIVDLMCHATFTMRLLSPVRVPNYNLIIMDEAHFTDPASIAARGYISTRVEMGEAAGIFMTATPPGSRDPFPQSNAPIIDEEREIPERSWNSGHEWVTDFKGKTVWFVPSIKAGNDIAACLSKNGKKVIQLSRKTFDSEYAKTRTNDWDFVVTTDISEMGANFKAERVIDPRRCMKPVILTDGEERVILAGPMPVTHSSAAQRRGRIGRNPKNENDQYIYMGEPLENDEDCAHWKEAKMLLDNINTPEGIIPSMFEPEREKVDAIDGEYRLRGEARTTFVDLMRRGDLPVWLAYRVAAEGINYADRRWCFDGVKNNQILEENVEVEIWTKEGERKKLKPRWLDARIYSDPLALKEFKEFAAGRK
Sequence (P29990 1346-1475 partner limits assumed): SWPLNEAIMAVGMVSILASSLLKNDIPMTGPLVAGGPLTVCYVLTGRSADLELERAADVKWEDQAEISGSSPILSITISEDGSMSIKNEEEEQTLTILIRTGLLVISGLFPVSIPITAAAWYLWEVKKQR
Value Type: inhibition at 12.5 µM (%)

> print(dat)
                                   compound  recorded.value
1  CC(C)CC(NC(=O)c1ccc(Oc2ccccc2)cc1)C(=O)Nc1cccc(C(N)=O)c1 (stereo not shown)              36
2  NC(=O)c1cccc(NC(=O)C(Cc2ccc(OCc3ccc4ccccc4c3)cc2)NC(=O)c2ccc(Oc3ccccc3)cc2)c1 (stereo not shown)              82
3  CC(C(=O)NC(Cc1c[nH]c2ccccc12)C(=O)Nc1cccc(C(N)=O)c1)c1ccc2c(c1)[nH]c1ccc(Cl)cc12 (stereo not shown)              91
4  NC(=O)c1cccc(NC(=O)C(CC2CCCCC2)NC(=O)c2ccc(Oc3ccccc3)cc2)c1 (stereo not shown)              82

====

molecular target: NS2B(H)-NS3pro (DENV-2 NS2B-NS3 protease) (Dengue virus 2 Thailand/NGS-C/1944); conditions: read-out: IC50 (C7.5-HEPES AMC); AMC substrate, HEPES pH 7.5, CHAPS; inhibitor
Sequence (P14340 1394-1433 limits assumed): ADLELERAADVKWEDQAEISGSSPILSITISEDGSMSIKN
Sequence (P14340 1476-1660 limits assumed): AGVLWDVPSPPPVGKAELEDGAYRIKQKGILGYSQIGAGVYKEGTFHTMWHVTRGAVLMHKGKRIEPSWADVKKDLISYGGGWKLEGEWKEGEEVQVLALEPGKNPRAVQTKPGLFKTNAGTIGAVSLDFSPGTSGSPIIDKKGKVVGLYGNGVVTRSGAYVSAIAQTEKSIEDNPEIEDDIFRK
In this section, each of the compounds is paired with its reported IC50.
Value Type: IC50 (µM)

> print(dat)
                                   compound  recorded.value
1  CCCCC(CC)C(=O)N[C@H](C(=O)Nc1cccc(C(N)=O)c1)c1ccc(OCc2ccccc2)cc1 (some centres unmarked)              22
2  NC(=O)c1cccc(NC(=O)[C@@H](NC(=O)C2COc3ccccc3C2)c2ccc(OCc3ccccc3)cc2)c1 (some centres unmarked)              16

====

assay: in vitro; set-up: species or system DENV2proHeLa (HeLa); details: human, denv2prohela cells
Value Type: CC50

> print(dat)
                                   molecule  recorded.value
1  Cc1nc(-c2ccncc2)sc1C(=O)N[C@H](C(=O)Nc1cccc(C(N)=O)c1)c1ccc(OCc2ccccc2)cc1         > 50 µM
2  CC(C(=O)N[C@H](C(=O)Nc1cccc(C(N)=O)c1)c1ccc(OCc2ccccc2)cc1)c1ccccc1 (some centres unmarked)         > 50 µM
3  NC(=O)c1cccc(NC(=O)C(NC(=O)c2ccccc2)c2ccc(OCc3ccccc3)cc2)c1 (centres unmarked)        > 100 µM
4  CC(C)CCC(=O)N1CCC(C(=O)N[C@H](C(=O)Nc2cccc(C(N)=O)c2)c2ccc(OCc3ccccc3)cc2)CC1        > 100 µM
5  COc1cc(CC(=O)N[C@H](C(=O)Nc2cccc(C(N)=O)c2)c2ccc(OCc3ccccc3)cc2)cc(OC)c1OC         > 50 µM
6  NC(=O)c1cccc(NC(=O)[C@@H](NC(=O)OCc2ccccc2)c2ccc(OCc3ccccc3)cc2)c1         ≥ 50 µM
7  NC(=O)c1cccc(NC(=O)[C@@H](NC(=O)c2ccc(Oc3ccccc3)nc2)c2ccc(OCc3ccccc3)cc2)c1        > 100 µM
8  Cc1onc(-c2ccc(F)cc2)c1C(=O)N[C@H](C(=O)Nc1cccc(C(N)=O)c1)c1ccc(OCc2ccccc2)cc1         > 50 µM

====

target: DENV2proHeLa NS2B-NS3 protease (Dengue virus 2 Thailand/16681/84, UniProt P29990); assay: cell-based; design: species or system DENV2proHeLa (HeLa); settings: HeLa, read-out: % inhibition
Value Type: inhibition at 12.5 µM (%)

> print(dat)
                                   compound  recorded.value
1  CC(CC(=O)N[C@H](C(=O)Nc1cccc(C(N)=O)c1)c1ccc(OCc2ccccc2)cc1)CC(C)(C)C (stereo partly shown) [compound 16]              61
2  NC(=O)c1cccc(NC(=O)[C@@H](NC(=O)C2COc3ccccc3C2)c2ccc(OCc3ccccc3)cc2)c1 (stereo partly shown) [compound 26, 26]              77
3  NC(=O)c1cccc(NC(=O)[C@@H](NC(=O)c2cc(O)n(-c3ccccc3)n2)c2ccc(OCc3ccccc3)cc2)c1 [compound 27]              24
4  CCCCC(CC)C(=O)N[C@H](C(=O)Nc1cccc(C(N)=O)c1)c1ccc(OCc2ccccc2)cc1 (stereo partly shown) [compound 20, 20]              63

====

In this section, each of the compounds is paired with its reported inhibition at 12.5 µM.
target: DENV2proHeLa NS2B-NS3 protease (Dengue virus 2 Thailand/16681/84, UniProt P29990); test: cell-based; set-up: species or system DENV2proHeLa (HeLa); conditions: HeLa, read-out: % inhibition
Value Type: inhibition at 12.5 µM (%)

> print(dat)
                                   compound                         target.under.test             value.type  recorded.value
1  NC(=O)c1cccc(NC(=O)C(CCc2ccccc2)NC(=O)c2ccc(Oc3ccccc3)cc2)c1 (centres unmarked)  DENV2proHeLa NS2B-NS3 protease (Dengue virus 2 Thailand/16681/84, UniProt P29990)  inhibition at 12.5 µM              67
2  NC(=O)c1cccc(NC(=O)C(CCC(=O)Nc2ccccc2)NC(=O)c2ccc(Oc3ccccc3)cc2)c1 (centres unmarked)  DENV2proHeLa NS2B-NS3 protease (Dengue virus 2 Thailand/16681/84, UniProt P29990)  inhibition at 12.5 µM              45
3  NC(=O)c1cccc(NC(=O)C(Cc2ccc3ccccc3c2)NC(=O)c2ccc(Oc3ccccc3)cc2)c1 (centres unmarked)  DENV2proHeLa NS2B-NS3 protease (Dengue virus 2 Thailand/16681/84, UniProt P29990)  inhibition at 12.5 µM              55
4  NC(=O)c1cccc(NC(=O)C(Cc2ccccc2)NC(=O)c2ccc(Oc3ccccc3)cc2)c1 (centres unmarked)  DENV2proHeLa NS2B-NS3 protease (Dengue virus 2 Thailand/16681/84, UniProt P29990)  inhibition at 12.5 µM              55
5  NC(=O)c1cccc(NC(=O)C(Cc2c[nH]c3ccccc23)NC(=O)c2ccc(Oc3ccccc3)cc2)c1 (centres unmarked)  DENV2proHeLa NS2B-NS3 protease (Dengue virus 2 Thailand/16681/84, UniProt P29990)  inhibition at 12.5 µM              65

====

molecular target: DENV2proHeLa NS2B-NS3 protease (Dengue virus 2 Thailand/16681/84, UniProt P29990); assay: cell-based; set-up: species or system DENV2proHeLa (HeLa)
In this section, each of the compounds is paired with its reported EC50.
Value Type: EC50 (µM)

> print(dat)
                                   compound  value.type  units.of.measure  recorded.value
1  CC(C)Cc1ccc(C(C)C(=O)N[C@H](C(=O)Nc2cccc(C(N)=O)c2)c2ccc(OCc3ccccc3)cc2)cc1 (stereo partly shown) [compound 3, 3]        EC50                µM             3.8
2  NC(=O)c1cccc(NC(=O)[C@@H](NC(=O)Cc2ccc(Oc3ccccc3)cc2)c2ccc(OCc3ccccc3)cc2)c1 [compound 11, 11]        EC50                µM             6.9
3  NC(=O)c1cccc(NC(=O)[C@@H](NC(=O)Cc2ccccc2Nc2c(Cl)cccc2Cl)c2ccc(OCc3ccccc3)cc2)c1 [compound 9, 9]        EC50                µM             8.6
4  COc1cc(C(=O)N[C@H](C(=O)Nc2cccc(C(N)=O)c2)c2ccc(OCc3ccccc3)cc2)ccc1Oc1ccccc1 [compound 8, 8]        EC50                µM             1.4

====

In this section, each of the compounds is paired with its reported pIC50.
target: NS2B(H)-NS3pro (DENV-2 NS2B-NS3 protease) (Dengue virus 2 Thailand/NGS-C/1944); experiment: fluorometric protease assay, AMC substrate; assay type: biochemical; settings: pH 7.5, HEPES, CHAPS; substrate Bz-nKRR-AMC
pIC50: −log10 of the molar value.
Value Type: pIC50

> print(dat)
                                   compound  recorded.value
1  NC(=O)c1cccc(NC(=O)[C@@H](NC(=O)c2cc(O)n(-c3ccccc3)n2)c2ccc(OCc3ccccc3)cc2)c1            4.52
2  NC(=O)c1cccc(NC(=O)C(Cc2ccc3ccccc3c2)NC(=O)c2ccc(Oc3ccccc3)cc2)c1 (stereo not shown)            5.23
3  CC(CC(=O)N[C@H](C(=O)Nc1cccc(C(N)=O)c1)c1ccc(OCc2ccccc2)cc1)CC(C)(C)C (stereo partly shown)            4.96
4  NC(=O)c1cccc(NC(=O)C(Cc2ccc(OCc3ccc4ccccc4c3)cc2)NC(=O)c2ccc(Oc3ccccc3)cc2)c1 (stereo not shown)            5.32
5  NC(=O)c1cccc(NC(=O)[C@@H](NC(=O)c2ccc(Oc3ccccc3)nc2)c2ccc(OCc3ccccc3)cc2)c1            4.47
6  NC(=O)c1cccc(NC(=O)C(Cc2ccc(NCc3ccccc3)cc2)NC(=O)c2ccc(Oc3ccccc3)cc2)c1 (stereo not shown)            4.82
7  NC(=O)c1cccc(NC(=O)[C@@H](NC(=O)c2ccc(Oc3ccccc3)cc2)c2ccc(OCc3ccccc3)cc2)c1            4.89
